experiment.summary: qHTS assay for small molecule disruptors of the mitochondrial membrane potential - 1 hr assay (AID 651754); also: nearly all actives have a fitted effect of over 35% in size
test.settings: series mostly up to 92.2 µM
Results filed as inconclusive are left out. Active and inactive are the calls of the source. Calls follow the shape of the full dose curve.
One label from this list, please: 1 (active), 0 (inactive)

Example cases with answers are listed next.
structure.string: CC(C)(O)C(=O)Nc1ccc([N+](=O)[O-])c(C(F)(F)F)c1
label: 1
//
structure.string: CN(C)NC(=O)CCC(=O)O
label: 0
//
structure.string: CC(=O)[O][Hg][c]1ccccc1
label: 1
//
structure.string: Nc1ccc(Cl)cc1
label: 0
//
structure.string: Nc1ccc(Sc2ccc(N)cc2)cc1
label: 0

Now take the following compound into account.
Q: I'd appreciate the recorded outcome for O=[N+]([O-])c1c(Cl)c(Cl)cc(Cl)c1Cl from this test.
Ans: 0

----------
measured.on: Nuclear receptor ROR-gamma (Homo sapiens)
experiment.summary: qHTS assay for small molecule antagonists of the retinoid-related orphan receptor gamma (ROR-gamma) signaling pathway (AID 651802); also: nearly all actives have a fitted effect of over 60% in size
test.settings: ROR-gamma antagonist cell reporter assay; series mostly up to 92.2 µM
Results filed as inconclusive are left out. Calls of active or inactive are those of the source. Calls follow the shape of the dose curve; as a rule, active = well fitted inhibition curve with a large enough effect; inconclusive = small, poorly fitted or top-dose-only effect; inactive = no such curve, though single readings can be large or run the other way.
One label from this list, please: active, inactive

Example cases with answers are listed next.
molecule: O=[N+]([O-])c1c2ccccc2cc2ccccc12
label: inactive
//
molecule: C1CCC(NC2CCCCC2)CC1
label: inactive
//
molecule: Nc1ccc(Cl)cc1
label: inactive
//
molecule: Brc1ccccc1-c1ccccc1
label: inactive
//
molecule: O=[N+]([O-])c1cc([N+](=O)[O-])c2ccccc2c1
label: inactive

Q: I'd appreciate the recorded outcome for COc1ccc(C(c2ccc(OC)cc2)C(Cl)(Cl)Cl)cc1 from this test.
Ans: active

Q: Try COC(C)(C)CCCC(C)C/C=C/C(C)=C/C(=O)OC(C)C (configuration not stated) next.
Ans: inactive

----------
experiment.summary: High-throughput drug toxicity screening in the BPDCN cell line Cal-1 (AID 1224825);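 also: cells exposed to compounds for 48 h; 100% = DMSO and 0% = bortezomib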
test.settings: Cal-1 BPDCN cell viability, qHTS; at 45.8 µM (top of the series)
# maps each entry to its viability (% of control)
Your answer is read as %, so omit the unit and give the number.

compound: Cc1c(N)nc([C@H](CC(N)=O)NC[C@@H](N)C(N)=O)nc1C(=O)N[C@H](C(=O)N[C@@H](C)[C@H](O)[C@@H](C)C(=O)N[C@@H](C(=O)NCCc1nc(-c2nc(C(=O)NCCC[S+](C)C)cs2)cs1)[C@@H](C)O)C(O[C@H]1O[C@H](CO)[C@H](O)[C@@H](O)[C@@H]1O[C@H]1O[C@H](CO)[C@@H](O)[C@H](OC(N)=O)[C@H]1O)c1cnc[nH]1 (stereo partly drawn)
viability (% of control) [%]: 16

compound: O=C1C=CC[C@@H]2[C@H]3CCCN4CCC[C@@H](CN12)[C@@H]34
viability (% of control) [%]: 120

compound: COc1cc([C@@H]2c3cc4c(cc3[C@@H](O)C3COC(=O)C32)OCO4)cc(OC)c1O (stereo partly drawn)
viability (% of control) [%]: 5.19

compound: CC(N[C@H]1C[C@H]1c1ccccc1)c1ccc2c(c1)OCCO2 (stereo partly drawn)
viability (% of control) [%]: 96.1

Q: # lookup: viability (% of control) of CC1(N2CCC(n3c([C@@H]4CCCNC4)nc4ccccc43)CC2)CCCCCCC1
Ans: 5.69

Q: Try CC(=O)Nc1ccc(OC[C@](C)(O)C(=O)Nc2ccc([N+](=O)[O-])c(C(F)(F)F)c2)cc1 next.
Ans: 106

Q: Try N#C[C@H](O[C@@H]1O[C@H](CO[C@@H]2O[C@H](CO)[C@H](O)[C@H](O)[C@H]2O)[C@H](O)[C@H](O)[C@H]1O)c1ccccc1 next.
Ans: 52.5

Q: Try CSCC[C@@H](NC(=O)[C@@H](Cc1ccccc1)NC(=O)CNC(=O)CNC(=O)[C@@H](N)Cc1ccc(O)cc1)C(=O)O next.
Ans: 134

Q: Try CC(=O)N(C)c1cccc(-c2ccnc3c(C(=O)c4cccs4)cnn23)c1 next.
Ans: 72.5

----------
Test system: C33A
experiment.summary: Primary qHTS to identify gynecologic anti-cancer compounds using libraries of approved drugs and bioactive compounds (AID 1345084); also: nearly all actives have a fitted effect of over 55% in size
test.settings: Gynecologic cancer cell panel viability, ATPlite luminescence, 48 h; series mostly up to 57.5 µM
Records with an inconclusive call do not appear. Active and inactive are the calls of the source. Calls come from the whole dose curve; as a rule, active = well fitted cell-killing curve with a large enough effect; inconclusive = small, poorly fitted or top-dose-only effect, or effect the other way; inactive = flat fitted curve, though single readings scatter.
One label from this list, please: active, inactive

compound: CC(C)[C@]12O[C@H]1[C@@H]1O[C@]13[C@]1(O[C@H]1C[C@H]1C4=C(CC[C@@]13C)C(=O)OC4)[C@@H]2O
measured.on: C33A
label: active
--
compound: O=C(O)COc1ccccc1
measured.on: C33A
label: inactive

Q: I'd appreciate the recorded outcome for C=CCC1=C(C)C(OC(=O)C2C(C=C(C)C)C2(C)C)CC1=O (stereo not drawn) from this test.
Ans: inactive

Q: Try Cc1ccc(Cl)c(O)c1 next.
Ans: inactive

----------
experiment.summary: Primary qHTS for inhibitors of nuclear receptor binding SET domain protein 2 (NSD2) in an isogenic RCH-ACV NSD2 p.E1099K mutant (9B) (AID 1645876); also: nearly all actives have a fitted effect of over 70% in size
test.settings: RCH-ACV (leukaemia line) NSD2 E1099K (9B) viability, CellTiter-Glo, 72 h; series mostly up to 44.9 µM
Inconclusive results are not listed. Active and inactive are the calls of the source. The call rests on the fitted dose curve; in most records, active means well fitted inhibition curve with a large enough effect; inconclusive means small, poorly fitted or top-dose-only effect; inactive means flat fitted curve, though single readings scatter.
One label from this list, please: active, inactive

Example cases with answers are listed next.
compound: CC[C@@]1(O)C(=O)OCc2c1cc1n(c2=O)Cc2cc3ccccc3nc2-1
label: active
//
compound: C=CCC1=C(C)C(OC(=O)C2C(C=C(C)C)C2(C)C)CC1=O (configuration not stated)
label: active
//
compound: S=C(NC1CCCCC1)N1CCC(c2cnc[nH]2)CC1
label: inactive

Q: I'd appreciate the recorded outcome for COC(C)(C)CCCC(C)C/C=C/C(C)=C/C(=O)OC(C)C (configuration not stated) from this test.
Ans: inactive

Q: Try COC1=C[C@@H]2[C@@H]3Cc4ccc(OC)c(O)c4[C@]2(CCN3C)CC1=O next.
Ans: inactive

Q: Try O=C(O)C(Cl)Cl next.
Ans: inactive

Q: Try O=c1cccc2n1CC1CNC[C@H]2C1 next.
Ans: inactive

Q: Try Cc1cc(O)ccc1Cl next.
Ans: inactive

Q: Try CN1[C@H]2CC(O)C[C@H]1[C@H]1O[C@H]12 (some centres not stated) next.
Ans: inactive

Q: Try COc1ccc2c(c[n+](C)c3c4cc5c(cc4ccc23)OCO5)c1OC next.
Ans: inactive

Q: Try O=C1C(I)=CC(=C(c2cc(I)c(O)c(I)c2)c2ccccc2C(=O)O)C=C1I next.
Ans: inactive

Q: Try CC(C)(C)c1cc(C=C(C#N)C#N)cc(Br)c1O next.
Ans: inactive

Q: Try C#CC1(O)CCC2C3CCC4=CC(=O)CCC4(C)C3CCC21C (configuration not stated) next.
Ans: inactive

Q: Try CC(O)CN1CCN(CC(=O)[O-])CCN(CC(=O)[O-])CCN(CC(=O)[O-])CC1.[Gd+3] (configuration not stated) next.
Ans: inactive

Q: Try O=C(Oc1ccc([N+](=O)[O-])cc1)N1CCC(C(O)(c2ccc3c(c2)OCO3)c2ccc3c(c2)OCO3)CC1 next.
Ans: inactive

Q: Try COc1cc([C@@H]2c3cc4c(cc3[C@@H](O)C3COC(=O)C32)OCO4)cc(OC)c1O (some centres not stated) next.
Ans: active

Q: Try CC(C)(C)NC[C@H](O)c1ccc(O)cc1Cl next.
Ans: inactive

Q: Try CN(C)NC(=O)CCC(=O)O next.
Ans: inactive

Q: Try CCc1c(C(=O)C(N)=O)c2c(OCC(=O)O)cccc2n1Cc1ccccc1 next.
Ans: inactive

Q: Try Clc1ccccc1C(c1ccccc1)(c1ccccc1)n1cccn1 next.
Ans: inactive

Q: Try O=C1C=CC[C@@H]2[C@H]3CCCN4CCC[C@@H](CN12)[C@@H]34 next.
Ans: inactive

Q: Try CCN1C[C@]2(OC(=O)c3ccccc3NC(C)=O)CC[C@H](OC)[C@@]34[C@H]5CC6[C@@H](OC)C[C@](O)(C(C[C@@H]23)[C@@H]14)[C@@]5(O)[C@@H]6OC next.
Ans: inactive

----------
experiment.summary: Quantitative High-Throughput drug screen in 47 multiple myeloma cell lines against the NCATS MIPE library collection: Karpas417_ECACC cell viability assay (AID 1918961)
test.settings: Karpas417 myeloma viability, CellTiter-Glo ATP luminescence, 48 h
Source text: PI: Beverly A. Mock Ph.D. Laboratory of Cancer Biology and Genetics, Center for Cancer Research, National Cancer Institute, National Institute of Health, Bethesda, Maryland […] 5; Detector; 425V; Luminescence; Viewlux PerkinElmer. […] 1. […] Briefly, the corresponding myeloma cell lines were screened in 1,536-well plates with 500 cells, 5-uL per well for inhibition of cell viability (assessed by measuring ATP levels with CellTiterGlo). […]
Records with an inconclusive call do not appear. Calls of active or inactive are those of the source. Calls follow the shape of the dose curve; as a rule, active = well fitted cell-killing curve with a large enough effect; inconclusive = small, poorly fitted or top-dose-only effect, or effect the other way; inactive = no such curve, though single readings can be large or run the other way.
One label from this list, please: active, inactive

compound: COC1=C[C@@H]2[C@@H]3Cc4ccc(OC)c(O)c4[C@]2(CCN3C)CC1=O
label: active

compound: CC1=NN=C(c2ccc(N)cc2)c2cc3c(cc2C1)OCO3
label: active

compound: O=S(=O)(CC1CS1)c1ccc(Oc2ccccc2)cc1 (configuration not stated)
label: active

Q: I'd appreciate the recorded outcome for CC(C)(O)C=CC(=O)[C@](C)(O)[C@H]1[C@H](O)C[C@]2(C)[C@@H]3CC=C4[C@@H](C=C(O)C(=O)C4(C)C)[C@]3(C)C(=O)C[C@@]12C from this test.
Ans: active

Q: Try CCOP(=O)(OCC)C(C)NC(=O)N(CCCl)N=O (configuration not stated) next.
Ans: inactive

Q: Try O=[N+]([O-])c1ncc[nH]1 next.
Ans: inactive

Each recorded value in this set is attributed to PubChem BioAssay (NCATS).
